- System: Plasmodium berghei
- assay.summary: Luciferase/luciferin-expressing antifolate-resistant parasites were used to infect a culture of HepG2 cells that were pre-incubated with compounds. Infected hepatocytes emit light due to the luciferase reaction. Assay results are presented as the percent inhibition of light emission compared to control. […]
- Format: functional
- conditions: sporozoite, PBLUC_HILL_SLOPE 8.25, PBLUC_R_SQUARED 0.103, read-out: LUCIFERASE INFECTION ASSAY - IC50
reported.property: IC50 (µM)

compound.structure.string: COc1ccc(-c2cc([N+](=O)[O-])ccc2OCC(=O)NC(=O)NCCC(C)C)cc1
reported.property: IC50
obs.value: 9.42

----------
- System: Plasmodium berghei
- assay.summary: Luciferase/luciferin-expressing antifolate-resistant parasites were used to infect a culture of HepG2 cells that were pre-incubated with compounds. Infected hepatocytes emit light due to the luciferase reaction. Assay results are presented as the percent inhibition of light emission compared to control. […]
- Assay type: functional
- conditions: sporozoite, HEPG2TOX_HILL_SLOPE 1.33, HEPG2TOX_R_SQUARED 0.905, PBLUC_HILL_SLOPE 0.748, PBLUC_R_SQUARED 0.781, read-out: LUCIFERASE INFECTION ASSAY - IC50

compound.structure.string: CCOC(=O)c1[nH]c(C)c(C(=O)/C=C/c2c(C)nn(-c3ccc(F)cc3)c2Cl)c1C
assay.system: Plasmodium berghei
IC50 / nM: 34.1

----------
- Tested on: Plasmodium berghei
- assay.summary: Luciferase/luciferin-expressing antifolate-resistant parasites were used to infect a culture of HepG2 cells that were pre-incubated with compounds. Infected hepatocytes emit light due to the luciferase reaction. Assay results are presented as the percent inhibition of light emission compared to control. […]
- Format: functional
- conditions: sporozoite, HEPG2TOX_HILL_SLOPE 1.21, HEPG2TOX_R_SQUARED 0.923, PBLUC_HILL_SLOPE 1.33, PBLUC_R_SQUARED 0.803, read-out: LUCIFERASE INFECTION ASSAY - IC50

compound.structure.string: Cn1ccc2cc(-c3cnc4cnc(-c5ccccc5)cn34)ccc21
unit.annotation: nM
IC50: 46.5

----------
- Test system: Plasmodium berghei
- assay.summary: Luciferase/luciferin-expressing antifolate-resistant parasites were used to infect a culture of HepG2 cells that were pre-incubated with compounds. Infected hepatocytes emit light due to the luciferase reaction. Assay results are presented as the percent inhibition of light emission compared to control. […]
- Format: functional
- conditions: sporozoite, PBLUC_HILL_SLOPE 4.53, PBLUC_R_SQUARED 0.451, read-out: LUCIFERASE INFECTION ASSAY - IC50

compound.structure.string: CC(C)c1ccc2c(ccc[n+]2C)c1
assay.system: Plasmodium berghei
unit.annotation: µM
IC50: 8.36

----------
- System: Plasmodium berghei
- assay.summary: Luciferase/luciferin-expressing antifolate-resistant parasites were used to infect a culture of HepG2 cells that were pre-incubated with compounds. Infected hepatocytes emit light due to the luciferase reaction. Assay results are presented as the percent inhibition of light emission compared to control. […]
- Format: functional
- conditions: sporozoite, FFLUC_HILL_SLOPE 12.6, FFLUC_R_SQUARED 0.716, read-out: LUCIFERASE INFECTION ASSAY - IC50

compound: CC(CCc1ccccc1)NC(=O)Cn1c(=O)c(=O)n(Cc2ccccc2)c2ccc(Cl)cc21 (stereo unspecified)
assay.system: Plasmodium berghei
IC50: > 10 µM
